Values were extracted from patent US20210139581A1.

Please go through the items and note down their Receptor downregulation (EC50).
- System name: human CD33 on primary human monocyte-derived dendritic cells (human, UniProt P20138 18-364)
- Sequence (P20138 18-364): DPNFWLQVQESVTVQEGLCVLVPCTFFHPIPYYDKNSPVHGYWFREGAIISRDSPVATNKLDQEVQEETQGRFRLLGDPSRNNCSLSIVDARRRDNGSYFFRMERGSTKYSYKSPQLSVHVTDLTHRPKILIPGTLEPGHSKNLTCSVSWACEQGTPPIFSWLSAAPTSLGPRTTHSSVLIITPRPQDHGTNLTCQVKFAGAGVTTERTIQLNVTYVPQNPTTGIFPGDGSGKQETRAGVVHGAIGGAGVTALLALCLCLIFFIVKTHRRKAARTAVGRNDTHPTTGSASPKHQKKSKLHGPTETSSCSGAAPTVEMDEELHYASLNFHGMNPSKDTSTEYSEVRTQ
- Experiment notes: cell-based or functional assay
Note: unit nM is implicit; provide only the numeric part.

Ask: For the binder AB-63.13 (antibody, V domains shown) VH: QVQLVQSGAEVKKPGASVKVSCKASGYTFTDYNLHWVRQAPGQGLEWIGFIYPSNGIRGYAQKFQGRVTMTVDTSTSTVYMELSSLRSEDTAVYYCARSDVDYFDYWGQGTLVTVSS VL: DIVLTQSPDSLAVSLGERATINCRASQSVSTSTYSYMHWYQQKPGQPPKLLIKYASNLESGVPDRFSGSGSGTDFTLTISSLQAEDVAVYYCQHSEEIPLTFGQGTKLEIK , what Receptor downregulation (EC50) is on record?
Result: 0.0448

Ask: For the binder AB-H63 (antibody, V domains shown, Humanized variant of murine 2F5.1) VH: QVQLVQSGAEVKKPGASVKVSCKASGYTFTDYNLHWVRQAPGQGLEWIGFIYPSNGITGYAQKFQGRVTMTVDTSTSTVYMELSSLRSEDTAVYYCARSTVDYFDYWGQGTLVTVSS VL: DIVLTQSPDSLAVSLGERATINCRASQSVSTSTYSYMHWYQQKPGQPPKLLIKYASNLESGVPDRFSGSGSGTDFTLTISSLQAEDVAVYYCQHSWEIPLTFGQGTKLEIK , what Receptor downregulation (EC50) is on record?
Result: 0.0726

Ask: For the binder AB-63.8 (antibody, V domains shown) VH: QVQLVQSGAEVKKPGSSVKVSCKASGVTFTDYNYHWVRQAPGQGLEWIGFIYPSNGITGYAQKFQDRVTMTVDTSTSTVYMELSSLRSEDTAVYYCARSTVDYFDYWGQGTLVTVSS VL: DIVLTQSPDSLAVSLGERATINCRASQDVSTSTYSYMHWYQQKPGQPPKLLIKYASNLESGVPDRFSGSGSGTDFTLTISSLQAEDVAVYYCQHSWEIPLTFGQGTKLEIK , what Receptor downregulation (EC50) is on record?
Result: 0.0167
